assay system: PIK3CA (human) (UniProt P42336)
Sequence (P42336 whole entry, looked up): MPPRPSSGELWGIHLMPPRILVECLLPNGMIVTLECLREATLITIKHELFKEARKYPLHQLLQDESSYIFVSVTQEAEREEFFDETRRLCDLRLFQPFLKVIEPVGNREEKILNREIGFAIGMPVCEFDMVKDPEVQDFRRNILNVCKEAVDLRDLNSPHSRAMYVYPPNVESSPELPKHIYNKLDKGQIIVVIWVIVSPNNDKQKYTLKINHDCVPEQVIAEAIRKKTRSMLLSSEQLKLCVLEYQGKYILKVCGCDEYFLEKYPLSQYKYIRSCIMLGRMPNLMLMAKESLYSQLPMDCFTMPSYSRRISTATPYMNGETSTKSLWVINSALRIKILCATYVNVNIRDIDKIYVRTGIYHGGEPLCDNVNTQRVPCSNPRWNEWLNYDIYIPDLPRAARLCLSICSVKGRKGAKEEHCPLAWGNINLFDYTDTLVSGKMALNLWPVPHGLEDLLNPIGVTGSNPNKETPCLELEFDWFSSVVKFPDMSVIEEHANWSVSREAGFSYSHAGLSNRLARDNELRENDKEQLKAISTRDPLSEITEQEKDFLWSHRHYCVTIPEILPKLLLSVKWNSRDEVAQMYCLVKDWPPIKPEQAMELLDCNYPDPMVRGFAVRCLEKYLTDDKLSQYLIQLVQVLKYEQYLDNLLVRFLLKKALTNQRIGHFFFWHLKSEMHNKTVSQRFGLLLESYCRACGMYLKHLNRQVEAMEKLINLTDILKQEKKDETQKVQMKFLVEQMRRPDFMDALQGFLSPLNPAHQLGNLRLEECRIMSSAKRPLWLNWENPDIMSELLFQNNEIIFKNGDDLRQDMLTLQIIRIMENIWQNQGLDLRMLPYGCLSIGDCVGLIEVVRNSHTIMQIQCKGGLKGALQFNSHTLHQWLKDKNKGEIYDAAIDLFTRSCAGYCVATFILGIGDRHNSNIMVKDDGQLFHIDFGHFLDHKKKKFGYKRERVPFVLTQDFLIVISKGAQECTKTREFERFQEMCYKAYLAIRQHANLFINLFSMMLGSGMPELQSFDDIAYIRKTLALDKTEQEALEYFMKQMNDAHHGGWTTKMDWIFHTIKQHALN
experiment notes: Inhibition of A2780 Cell Proliferation
quantity kind: EC50

INSERT INTO results (sample_smiles, quantity_kind, val) VALUES
  ('C[C@H](N)C(=O)Nc1cn2nc(-c3cnc(N)c(C(F)(F)F)c3)ccc2n1', 'EC50', '< 10 µM'),
  ('NC(=O)[C@@H]1CCCN1C(=O)Nc1nc2ccc(-c3cnc(N)c(C(F)(F)F)c3)cc2s1', 'EC50', '< 10 µM'),
  ('Nc1ncc(-c2ccc3nc(NC(=O)c4ccccn4)cn3c2)cc1C(F)(F)F', 'EC50', '< 25 µM'),
  ('CC(=O)Nc1cn2cc(-c3cnc(N)c(C=NN(C)C)c3)ccc2n1', 'EC50', '< 10 µM');

-- ask Please report the recorded EC50 for CCCNc1ccc(-c2ccc3nc(NC(C)=O)sc3c2)cn1 .
-- reply < 25 µM
